Source: patent US20220324953A1

system-name: T1, Mouse CTGF protein-His tag (mouse, UniProt P29268 26-348)
T1 construct: C-terminal His tag; also called mouse CTGF-his protein; mouse CTGF fusion protein
T1 sequence: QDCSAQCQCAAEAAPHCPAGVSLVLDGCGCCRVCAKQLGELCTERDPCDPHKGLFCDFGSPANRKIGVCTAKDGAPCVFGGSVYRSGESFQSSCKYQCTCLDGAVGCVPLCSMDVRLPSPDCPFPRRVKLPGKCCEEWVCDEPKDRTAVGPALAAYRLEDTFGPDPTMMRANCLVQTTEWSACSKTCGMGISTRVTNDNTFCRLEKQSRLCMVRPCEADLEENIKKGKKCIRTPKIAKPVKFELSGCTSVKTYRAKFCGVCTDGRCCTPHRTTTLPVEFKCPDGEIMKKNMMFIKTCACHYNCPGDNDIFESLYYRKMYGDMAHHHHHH
method-description: ELISA, plate coated with mouse CTGF-his
Listing of recorded EC50 by entry.
Express the result in nM but write the number alone.

Completed entries (count: 2):
>  <binder>
Hu164-87wl (antibody, human IgG1, lambda, V domains shown) VH: EVQLQESGPGLVKPSQTLSLTCTVSGFSISTFGVHWIRQHPGKGLEWLGVIWRRGGTDYNAAFMSRLTISKDTSKNQVSFKLSSVTAADTAVYYCARDGGFDYWGQGTTVTVSS VL: ETVVTQEPSLTVSPGGTVTLTCRSSIGAVTTSNYANWVQQKPGQAFRGLIGGTSNRAPWTPARFSGSLLGGKAALTLSGVQPEDEAEYYCALWYSTHYVFGGGTKLTVLG

>  <unit-symbol>
nM

>  <value-measured>
0.067

$$$$
>  <binder>
Hu164-68wl (antibody, human IgG1, lambda, V domains shown) VH: EVTLKESGPVLVKPTETLTLTCTVSGFSLSTFGVHWIRQPPGKGLEWLGVIWRRGGTDYNAAFMSRLTISKDTSKSQVVFTMTNMDPVDTATYYCARDGGFDYWGQGTTVTVSS VL: ETVVTQEPSFSVSPGGTVTLTCRSSIGAVTTSNYANWVQQTPGQAFRGLIGGTSNRAPGVPDRFSGSILGNKAALTITGAQADDESDYYCALWYSTHYVFGGGTKLTVLG

>  <unit-symbol>
nM

>  <value-measured>
0.065

$$$$

As a next step, examine the binder that follows.
Quick one: EC50 of Hu147-12wk (antibody, human IgG1, kappa, V domains shown) VH: EVQLVESGGGLVQPGGSLRLSCAASGFTFSTYAMNWVRQAPGKGLEWVGRIRTKSNNYATYYADSVKDRFTISRDDSKNSLYLQMNSLKTEDTAVYYCVETGFAYWDQGTLVTVSS VL: EIVLTQSPATLSLSPGERATLSCSASSSVSYMHWFQQKPGQSPKLLIYSTSNLASGIPARFSGSGSGTDYTLTISSLEPEDFAVYYCQQRSSYPLTFGQGTKLEIKR ?
0.249
